Test system: WI-38
test details: Antiproliferative activity against human WI-38 cells measured after 48 hrs by MTT assay
Format: functional, cell-based
measurement conditions: WI-38, 48 h
IC50 for assorted compounds
Number only, in µg/mL; omit the unit.

Use the examples below as a reference point.
compound_smiles=CCOC(=O)CCCSC(=S)N1CCN(C(=O)c2cc(O)c3c(c2)C(=O)c2cccc(O)c2C3=O)CC1 target_under_test=WI-38 observation_type=IC50 result=55.3
compound_smiles=O=C1c2cccc(O)c2C(=O)c2c(O)cc(C(=O)N3CCN(C(=S)SCc4ccccc4)CC3)cc21 target_under_test=WI-38 observation_type=IC50 result=48.8

Now take the following compound into account.
Note IC50 for the compound shown: O=C(O)c1cc(O)c2c(c1)C(=O)c1cccc(O)c1C2=O 92.3
